Conditions: in n-hexane, 333.2 K
measure_name: solubility (mole fraction)
Give a plain numeric answer without units written out.

Enquiry: Item "Cc1cc(C)c(C(=O)P(=O)(C(=O)c2c(C)cc(C)cc2C)c2ccccc2)c(C)c1" has what recorded solubility (mole fraction)?
Return: 0.00635

* * *

Conditions: in methanol, 313.1 K
measure_name: solubility (mole fraction)
Reply briefly: the number, and no unit.

Enquiry: # lookup: solubility (mole fraction) of "Cc1cc(C)c(C(=O)P(=O)(C(=O)c2c(C)cc(C)cc2C)c2ccccc2)c(C)c1"
Return: 0.00909

* * *

Settings: in isopropanol, 328.1 K
measure_name: solubility (mole fraction)
In your answer, state the number alone without any accompanying words.

Enquiry: Suppose we examine the compound "Cc1cc(C)c(C(=O)P(=O)(C(=O)c2c(C)cc(C)cc2C)c2ccccc2)c(C)c1" ; what solubility (mole fraction) value has been reported?
Return: 0.0281

* * *

Details: in acetonitrile, 318.1 K
measure_name: solubility (mole fraction)
Simply state the number, no unit and no words.

Enquiry: Which solubility (mole fraction) is listed for "Cc1cc(C)c(C(=O)P(=O)(C(=O)c2c(C)cc(C)cc2C)c2ccccc2)c(C)c1" ?
Return: 0.0225

* * *

Conditions: in cyclohexane, 338.1 K
measure_name: solubility (mole fraction)
Please reply with the value in numeric form only.

Enquiry: Need solubility (mole fraction) of "Cc1cc(C)c(C(=O)P(=O)(C(=O)c2c(C)cc(C)cc2C)c2ccccc2)c(C)c1" , thanks.
Return: 0.017

* * *

Conditions: in n-hexane, 303.2 K
measure_name: solubility (mole fraction)
# answer = number (no unit)

Enquiry: Can you look up the measured solubility (mole fraction) of "Cc1cc(C)c(C(=O)P(=O)(C(=O)c2c(C)cc(C)cc2C)c2ccccc2)c(C)c1" for me?
Return: 0.00218

* * *

Details: in ethanol, 295.4 K
measure_name: solubility (mole fraction)
Please respond with just the number, no unit label.

Enquiry: State the recorded solubility (mole fraction) for this entry: "Cc1cc(C)c(C(=O)P(=O)(C(=O)c2c(C)cc(C)cc2C)c2ccccc2)c(C)c1"
Return: 0.00372

* * *

Details: in isopropanol, 324.1 K
measure_name: solubility (mole fraction)
Answer field: number only, no words.

Enquiry: May I ask what solubility (mole fraction) has been recorded for "Cc1cc(C)c(C(=O)P(=O)(C(=O)c2c(C)cc(C)cc2C)c2ccccc2)c(C)c1" ?
Return: 0.0205

* * *

Conditions: in acetonitrile, 295.4 K
measure_name: solubility (mole fraction)
Write the value as a bare number.

Enquiry: Recorded solubility (mole fraction) of "Cc1cc(C)c(C(=O)P(=O)(C(=O)c2c(C)cc(C)cc2C)c2ccccc2)c(C)c1" , please.
Return: 0.00463

* * *

Conditions: in cyclohexane, 308.3 K
measure_name: solubility (mole fraction)
Write no unit; give the number alone.

Enquiry: Please give the measured solubility (mole fraction) for this compound: "Cc1cc(C)c(C(=O)P(=O)(C(=O)c2c(C)cc(C)cc2C)c2ccccc2)c(C)c1"
Return: 0.00323

* * *

Details: in cyclohexane, 333.2 K
measure_name: solubility (mole fraction)
# answer = number (no unit)

Enquiry: Which solubility (mole fraction) value is on record for "Cc1cc(C)c(C(=O)P(=O)(C(=O)c2c(C)cc(C)cc2C)c2ccccc2)c(C)c1" ?
Return: 0.0123

* * *

Conditions: in methanol, 318.2 K
measure_name: solubility (mole fraction)
The response must contain the number and no unit.

Enquiry: // returns reported solubility (mole fraction) for input "Cc1cc(C)c(C(=O)P(=O)(C(=O)c2c(C)cc(C)cc2C)c2ccccc2)c(C)c1"
Return: 0.0134

* * *

Conditions: in ethanol, 313.1 K
measure_name: solubility (mole fraction)
# output: bare number, no unit

Enquiry: solubility (mole fraction) for "Cc1cc(C)c(C(=O)P(=O)(C(=O)c2c(C)cc(C)cc2C)c2ccccc2)c(C)c1" ?
Return: 0.0119

* * *

Conditions: in cyclohexane, 318.2 K
measure_name: solubility (mole fraction)
Give only the figure.

Enquiry: Return reported solubility (mole fraction); argument: "Cc1cc(C)c(C(=O)P(=O)(C(=O)c2c(C)cc(C)cc2C)c2ccccc2)c(C)c1"
Return: 0.00542

* * *

Settings: in acetonitrile, 338.1 K
measure_name: solubility (mole fraction)
The answer should be a number; do not append a unit.

Enquiry: Reported solubility (mole fraction) for "Cc1cc(C)c(C(=O)P(=O)(C(=O)c2c(C)cc(C)cc2C)c2ccccc2)c(C)c1" : what is it?
Return: 0.0863

* * *

Conditions: in isopropanol, 308.2 K
measure_name: solubility (mole fraction)
// no unit string in output, number only

Enquiry: Param item = "Cc1cc(C)c(C(=O)P(=O)(C(=O)c2c(C)cc(C)cc2C)c2ccccc2)c(C)c1" ; retrieve measured solubility (mole fraction).
Return: 0.0068

* * *

Conditions: in ethanol, 333.2 K
measure_name: solubility (mole fraction)
Kindly provide the number alone.

Enquiry: State the recorded solubility (mole fraction) for this entry: "Cc1cc(C)c(C(=O)P(=O)(C(=O)c2c(C)cc(C)cc2C)c2ccccc2)c(C)c1"
Return: 0.0471

* * *

Details: in acetonitrile, 323.2 K
measure_name: solubility (mole fraction)
Give the figure by itself; no unit, no explanation.

Enquiry: Query: solubility (mole fraction); subject: "Cc1cc(C)c(C(=O)P(=O)(C(=O)c2c(C)cc(C)cc2C)c2ccccc2)c(C)c1"
Return: 0.03

* * *

Conditions: in isopropanol, 343.2 K
measure_name: solubility (mole fraction)
Lab note: jot the number down without any unit.

Enquiry: // query solubility (mole fraction) value for entry "Cc1cc(C)c(C(=O)P(=O)(C(=O)c2c(C)cc(C)cc2C)c2ccccc2)c(C)c1"
Return: 0.0793

* * *

Conditions: in methanol, 303.2 K
measure_name: solubility (mole fraction)
In your answer, state the number alone without any accompanying words.

Enquiry: For the compound "Cc1cc(C)c(C(=O)P(=O)(C(=O)c2c(C)cc(C)cc2C)c2ccccc2)c(C)c1" , what solubility (mole fraction) is on record?
Return: 0.00434

* * *

Settings: in acetonitrile, 328.1 K
measure_name: solubility (mole fraction)

Enquiry: # get_value(readout='solubility (mole fraction)', item= "Cc1cc(C)c(C(=O)P(=O)(C(=O)c2c(C)cc(C)cc2C)c2ccccc2)c(C)c1" )
Return: 0.0421

* * *

Conditions: in ethanol, 318 K
measure_name: solubility (mole fraction)

Enquiry: What solubility (mole fraction) value was documented for this compound, "Cc1cc(C)c(C(=O)P(=O)(C(=O)c2c(C)cc(C)cc2C)c2ccccc2)c(C)c1" ?
Return: 0.0161

* * *

Details: in isopropanol, 313.3 K
measure_name: solubility (mole fraction)
Form rule: numeric answer, no unit written next to it.

Enquiry: # query: solubility (mole fraction) of entry "Cc1cc(C)c(C(=O)P(=O)(C(=O)c2c(C)cc(C)cc2C)c2ccccc2)c(C)c1"
Return: 0.0098

* * *

Settings: in methanol, 328 K
measure_name: solubility (mole fraction)
Reply: number alone, nothing else.

Enquiry: Entry under review: "Cc1cc(C)c(C(=O)P(=O)(C(=O)c2c(C)cc(C)cc2C)c2ccccc2)c(C)c1" . Reported solubility (mole fraction)?
Return: 0.0283

* * *

Conditions: in ethyl acetate, 328.2 K
measure_name: solubility (mole fraction)
The reply should be a number, written without any unit.

Enquiry: For the molecule shown here, "Cc1cc(C)c(C(=O)P(=O)(C(=O)c2c(C)cc(C)cc2C)c2ccccc2)c(C)c1" , give the reported solubility (mole fraction).
Return: 0.0842

* * *

Settings: in ethanol, 328.3 K
measure_name: solubility (mole fraction)

Enquiry: If you can, please state the reported solubility (mole fraction) value of "Cc1cc(C)c(C(=O)P(=O)(C(=O)c2c(C)cc(C)cc2C)c2ccccc2)c(C)c1" .
Return: 0.0326

* * *

Settings: in isopropanol, 305.2 K
measure_name: solubility (mole fraction)

Enquiry: Consider the molecule "Cc1cc(C)c(C(=O)P(=O)(C(=O)c2c(C)cc(C)cc2C)c2ccccc2)c(C)c1" and give its measured solubility (mole fraction).
Return: 0.0055

* * *

Details: in acetonitrile, 313.3 K
measure_name: solubility (mole fraction)
Returns: the value as a bare number; no unit string appended.

Enquiry: Item under review: "Cc1cc(C)c(C(=O)P(=O)(C(=O)c2c(C)cc(C)cc2C)c2ccccc2)c(C)c1" . Reported solubility (mole fraction)?
Return: 0.0154

* * *

Conditions: in cyclohexane, 328.1 K
measure_name: solubility (mole fraction)
Output: the number by itself.

Enquiry: Requested read-out: solubility (mole fraction). Entry: "Cc1cc(C)c(C(=O)P(=O)(C(=O)c2c(C)cc(C)cc2C)c2ccccc2)c(C)c1"
Return: 0.00966

* * *

Conditions: in ethyl acetate, 318.2 K
measure_name: solubility (mole fraction)
Just the number, please, no unit after it.

Enquiry: Suppose we examine the compound "Cc1cc(C)c(C(=O)P(=O)(C(=O)c2c(C)cc(C)cc2C)c2ccccc2)c(C)c1" ; what solubility (mole fraction) value has been reported?
Return: 0.0508
